Exercise: for every item that follows, state its recorded Percent variations of plasma free glycerol with respect to the controls.
Tested on: plasma levels of free glycerol
Assay Text: Effect of oral administration on plasma levels of free glycerol in the empty rat
Type: in vivo, rat (COBS CD (SD) BR male)
Study Conditions: 100 mg/kg oral referred to nicotinic acid, 10 h, empty rat

O=C(O)c1cccnc1    +16%
O=C(N[C@H]1C(OC(=O)c2cccnc2)O[C@H](COC(=O)c2cccnc2)[C@@H](OC(=O)c2cccnc2)[C@@H]1OC(=O)c1cccnc1)c1cccnc1 (stereo partly shown) [GLUN, N-nicotinoyl-glucosamine tetranicotinate]    -41%
O=C(OCC(COC(=O)c1cccnc1)(COC(=O)c1cccnc1)COC(=O)c1cccnc1)c1cccnc1 [NICERITROLE, pentaerithritol-tetranicotinate]    +4%

Ask: Entry under review: O=C(OC[C@H](OC(=O)c1cccnc1)[C@@H](OC(=O)c1cccnc1)[C@H](OC(=O)c1cccnc1)[C@@H](COC(=O)c1cccnc1)OC(=O)c1cccnc1)c1cccnc1 [SORBINICATE, D-glucitol hexanicotinate] . Reported Percent variations of plasma free glycerol with respect to the controls?
Result: +8%
